test system: TRH-R2; test: Receptor binding assay, competition with [3H][Nτ; conditions: ratio of Ki at TRH-R1 and TRH-R2; direction differs between compounds
measure-name: Fold Selectivity (Ki)

>>> df
                                   molecule           measure_name  readout_number
0  CCn1cnc(C[C@H](NC(=O)[C@@H]2CCC(=O)C2)C(=O)N2CCC[C@H]2C(N)=O)c1 [Compd 21 b, (1R)-3-Ocp-L-His(1-ethyl)-L-ProNH2]  Fold Selectivity (Ki)             3.2
1  CCCn1cnc(C[C@H](NC(=O)[C@@H]2CCC(=O)C2)C(=O)N2CCC[C@H]2C(N)=O)c1 [Compd 21 c, (1R)-3-Ocp-L-His(1-propyl)-L-ProNH2]  Fold Selectivity (Ki)             1.5
2  CCCc1nc(C[C@H](NC(=O)[C@@H]2CCC(=O)N2)C(=O)N2CCC[C@H]2C(N)=O)cn1C [Compd 10 a, L-pGlu-L-His(1-methyl-2-propyl)-L-ProNH2]  Fold Selectivity (Ki)             1.9
3  Cn1cnc(C[C@H](NC(=O)[C@@H]2CCC(=O)C2)C(=O)N2CCC[C@H]2C(N)=O)c1 [Compd 21 a, (1 R)-3-Ocp-L-His(1-methyl)-L-ProNH2]  Fold Selectivity (Ki)            10.6
